Numbers sourced from patent EP4786492A1.

biological target: mouse DLL3 on CHO-K1-mDLL3 cells (mouse) (UniProt O88516); assay: FACS, CHO-K1-mDLL3 cells, 100 nM antibody
Sequence (O88516 other isoform, or with tags, fused parts or gaps limits assumed): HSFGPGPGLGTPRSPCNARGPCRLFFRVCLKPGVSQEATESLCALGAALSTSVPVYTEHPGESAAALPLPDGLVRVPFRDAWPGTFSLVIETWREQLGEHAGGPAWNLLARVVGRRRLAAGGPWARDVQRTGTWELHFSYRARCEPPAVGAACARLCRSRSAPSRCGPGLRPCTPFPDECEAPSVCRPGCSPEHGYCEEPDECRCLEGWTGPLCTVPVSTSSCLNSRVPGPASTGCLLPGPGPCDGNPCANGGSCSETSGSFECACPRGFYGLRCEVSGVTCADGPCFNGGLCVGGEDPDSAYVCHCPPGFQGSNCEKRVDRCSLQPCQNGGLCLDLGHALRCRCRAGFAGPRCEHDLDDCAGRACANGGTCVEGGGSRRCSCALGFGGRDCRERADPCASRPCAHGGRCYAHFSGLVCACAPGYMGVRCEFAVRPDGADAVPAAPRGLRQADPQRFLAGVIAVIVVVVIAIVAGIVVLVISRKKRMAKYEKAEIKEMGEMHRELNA
Quantity Name: MFI (MFI)
One number for each entry, in MFI.

INSERT INTO measurements (binder, reported) VALUES
  ('Hab015VL5VH1b-hFc (scFv, part only; not given: VL-VH linker and human IgG1 Fc, V domains shown, not shown: another chain or arm of the molecule; a dimerising Fc or GST; small tags and cut ends) VL: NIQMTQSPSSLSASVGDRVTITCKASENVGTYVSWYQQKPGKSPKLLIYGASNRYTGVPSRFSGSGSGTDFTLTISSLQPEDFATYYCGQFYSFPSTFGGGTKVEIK VH: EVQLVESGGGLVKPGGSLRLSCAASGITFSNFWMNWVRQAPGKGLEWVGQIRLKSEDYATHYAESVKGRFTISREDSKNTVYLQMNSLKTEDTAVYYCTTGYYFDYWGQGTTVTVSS', 1460);

API: the following record is the query input.
Inquiry: Report MFI for Hab006VL4VH2-hFc (scFv, part only; not given: scFv linker and human IgG1 Fc, V domains shown, not shown: another chain or arm of the molecule; a dimerising Fc or GST; small tags and cut ends) VL: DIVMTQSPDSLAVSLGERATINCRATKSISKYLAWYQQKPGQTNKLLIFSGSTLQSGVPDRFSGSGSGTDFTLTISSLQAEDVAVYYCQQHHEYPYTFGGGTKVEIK VH: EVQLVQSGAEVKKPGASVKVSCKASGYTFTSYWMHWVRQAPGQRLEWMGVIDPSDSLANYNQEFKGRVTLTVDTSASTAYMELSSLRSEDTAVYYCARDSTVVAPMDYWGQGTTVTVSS
Reply text: 580
